# Target: UniProt:Q00690
# Sequence (Q00690 whole entry): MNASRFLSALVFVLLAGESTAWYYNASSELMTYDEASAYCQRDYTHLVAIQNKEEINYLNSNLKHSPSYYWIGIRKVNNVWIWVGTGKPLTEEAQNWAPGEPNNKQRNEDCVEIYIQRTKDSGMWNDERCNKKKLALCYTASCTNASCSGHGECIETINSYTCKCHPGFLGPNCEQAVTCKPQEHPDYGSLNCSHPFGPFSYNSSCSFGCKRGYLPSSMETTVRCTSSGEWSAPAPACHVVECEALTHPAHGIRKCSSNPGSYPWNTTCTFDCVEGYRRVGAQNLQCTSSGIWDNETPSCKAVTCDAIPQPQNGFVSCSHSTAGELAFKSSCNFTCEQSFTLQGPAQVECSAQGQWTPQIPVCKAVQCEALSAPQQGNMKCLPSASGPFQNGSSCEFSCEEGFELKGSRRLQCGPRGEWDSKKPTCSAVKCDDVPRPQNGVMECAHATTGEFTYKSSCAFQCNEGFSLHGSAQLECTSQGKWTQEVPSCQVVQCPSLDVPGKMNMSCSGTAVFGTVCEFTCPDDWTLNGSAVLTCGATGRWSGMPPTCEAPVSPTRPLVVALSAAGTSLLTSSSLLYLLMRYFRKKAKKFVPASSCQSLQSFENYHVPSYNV
Endpoint Label: IC50 (µM)

CC(=O)N[C@H]1[C@H]([C@H](O)[C@H](O)CO)O[C@@](O[C@H]2[C@@H](O)[C@@H](CO)O[C@@H](O[C@@H]([C@H](O[C@@H]3O[C@@H](C)[C@@H](O)[C@@H](O)[C@@H]3O)[C@H](C=O)NC(C)=O)[C@H](O)CO)[C@@H]2O)(C(=O)O)C[C@@H]1O	600
CCCCCCCCCCCCCCC(CCCCCCCCCCCCCC)CO[C@@H]1O[C@H](CO)[C@@H](O[C@@H]2O[C@H](CO)[C@H](O)[C@H](OS(=O)(=O)O)[C@H]2O)[C@H](O[C@@H]2O[C@@H](C)[C@@H](O)[C@@H](O)[C@@H]2O)[C@H]1O	280

(1) CCCCCCCCCCCCCCC(CCCCCCCCCCCCCC)C(=O)N[C@@H](CO[C@@H]1O[C@@H](C)[C@@H](O)[C@H](O)[C@@H]1O)C(=O)N[C@H](CCC(=O)O)C(=O)NC
(2) CCCCCCCCCCCCCCC(CCCCCCCCCCCCCC)C(=O)N[C@H](CO[C@@H]1O[C@@H](C)[C@@H](O)[C@H](O)[C@@H]1O)C(=O)N[C@@H](CCC(=O)O)C(=O)NC
-- ask Field: lower recorded IC50 (choose 1 or 2 ) Answer with the label corresponding to your selection.
-- reply 1
(1: 5.5 µM, 2: 13 µM)
